// data source = PubChem BioAssay

test-summary: modulators of S6 phosphorylation in cells, primary screen, cell-based, A549, cytoblot, luminescence, serum-stimulated (AID 1158);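 also: serum-stimulated A549 lung adenocarcinoma cells; signal is phosphorylated S6 detected by cytoblot immunostaining with HRP secondary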
conditions-used: A549 phospho-S6 cytoblot, 5 h, higher = more signal
experimental-endpoint: z-score

compound	endpoint-result
CC(C)CON=C1C[C@@H](O)[C@@H](O)[C@@H]2[C@@H]3C(=O)N(Cc4ccc5c(c4)OCO5)C(=O)[C@@H]3CC[C@H]12	-0.27
CC(=O)OC[C@H]1OC(ON=CC[C@@H]2C=C[C@H](OC(C)=O)[C@@H](COC(C)=O)O2)[C@H](OC(C)=O)[C@@H](OC(C)=O)[C@@H]1OC(C)=O (some centres undefined)	-0.999
CC(CCC(=O)OC[C@H]1O[C@H](C#Cc2ccccc2)C=C[C@@H]1Oc1ccc(C)cc1)=NO[C@H](C)c1cn([C@H](CO)Cc2ccccc2)nn1	-1.01
CCCNC(=O)OC[C@H]1O[C@H](CCON=C(C)CCC(=O)OC[C@H]2O[C@H](c3ccccc3)C=C[C@@H]2Oc2ccc(OC)cc2)C=C[C@@H]1Oc1ccc(OC)cc1	-0.441
CCOC(=O)[C@H](Cc1ccccc1)NC(=O)CCC1CC(OC(=O)NCCc2ccc(F)cc2)CC2(CCCC(COC(=O)NCCOC)O2)O1 (some centres undefined)	0.011
CO[C@H]1COC(=O)CCC[C@@H](C)[C@H](OC)COC(=O)[C@@H](C)NC(=O)CC=C[C@@H]1C	1.05
CCOC(=O)[C@H](Cc1ccccc1)NC(=O)CCC1CC(OC(=O)NCc2ccc3c(c2)OCO3)CC2(CCCC(COC(=O)NCCC(C)C)O2)O1 (some centres undefined)	0.274
COC(=O)[C@H](C)NC(=O)CCC1CC(OC(=O)NCc2ccc3c(c2)OCO3)CC2(CCCC(COC(=O)NCc3cccc(C(F)(F)F)c3)O2)O1 (some centres undefined)	0.0036
CC(C)(C)N1C(=O)[C@H]2[C@H]3[C@H](O)[C@H](O)CC(=O)[C@H]3CC[C@H]2C1=O	1.23
CC[C@@H](c1ccccc1)n1c(=O)n2n(c1=O)[C@H]1[C@H](O)[C@@H]3O[C@@H]3C(=O)[C@H]1CC2	-0.126
COC(=O)CC=C[C@@H](C)[C@@H](C=NO[C@@H](C)c1cn([C@H](CO)Cc2ccccc2)nn1)NS(=O)(=O)c1ccc(C)cc1	1.85
COCOc1ccc(Br)cc1C(=O)[C@@H]1O[C@H]1c1cccc(OC)c1	-0.291
CCCCc1nc2c(c3c1C[C@H](C)OC3)CN(CCOc1ccccc1)CC2	1.86
COc1cccc([C@H]2Oc3ccc(OC)cc3C(=NOC(C)CN3CCCCc4nc(C)c(C)cc43)[C@@H]2O)c1 (some centres undefined)	-0.887
CSCC[C@@H]1NC(=O)CC=C[C@@H](C)COC(=O)[C@@H](C)COC1=O	-0.0649
O=C1[C@H]2[C@H]3[C@H](O)[C@H](O)CC(=NOCc4ccccc4)[C@H]3CC[C@H]2C(=O)N1Cc1ccc2c(c1)OCO2	-0.702
COC(=O)[C@@H]1CC[C@H](C)[C@@H](c2ccc(C)cc2)N1C(=O)c1ccc(C=NO[C@@H](C)c2cn([C@H](CO)Cc3ccccc3)nn2)cc1	0.406
COc1ccc(O[C@H]2C=C[C@@H](c3ccccc3)O[C@@H]2CON=CC[C@@H]2C=C[C@H](OC(C)=O)[C@@H](COC(C)=O)O2)cc1	-0.981
CC(C)=CCCC(C)=CCON=C1C[C@@H](O)[C@@H](O)[C@@H]2[C@@H]3C(=O)N(c4ccc(F)cc4F)C(=O)[C@@H]3CC[C@H]12	-0.0997
CCOC(=O)NN=C1C[C@@H](O)[C@@H](O)[C@@H]2[C@@H]3C(=O)N(Cc4ccc5c(c4)OCO5)C(=O)[C@@H]3CC[C@H]12	-0.4
CON=C[C@@H](C)[C@H](OCc1ccccc1)C(C)C	0.564
COC(=O)CC=C[C@@H](C)[C@@H](C=NOC[C@H]1O[C@H](c2ccccc2)C=C[C@@H]1Oc1ccc(OC)cc1)OC	-0.516
CC(CCN1CCCCc2nc(C)c(C)cc21)=NOC[C@@H](C)[C@H](OCc1ccccc1)C(C)C	1.08
COC(=O)CC=C[C@@H](C)[C@@H](C=NOCC[C@@H]1C=C[C@H](OC(C)=O)[C@@H](COC(C)=O)O1)NS(=O)(=O)c1ccc(C)cc1	-0.879
CO[C@H]1COC(=O)[C@H](C)NC(=O)CC=C[C@@H](C)[C@H](OC)COC(=O)[C@@H](OCc2ccccc2)C=C[C@@H]1C	-0.191
CCc1cc2c(nc1CC)CCN(CCC(C)=NO[C@@H](C)c1cn([C@H](CO)Cc3ccccc3)nn1)C2	0.434
O=C1C[C@@H](O)[C@@H](O)[C@@H]2[C@@H]3C(=O)N(C[C@@H]4CCCO4)C(=O)[C@@H]3CC[C@@H]12	0.381
C#CCCCON=C1C[C@@H](O)[C@@H](O)[C@@H]2[C@@H]3C(=O)N(CC)C(=O)[C@@H]3CC[C@@H]12	-0.595
COC(=O)CC=C[C@@H](C)[C@@H](C=NOC[C@@H](O)[C@H]1O[C@@H]2OC(C)(C)O[C@@H]2[C@H]1O)NS(=O)(=O)c1ccc(C)cc1	-0.979

----------
Let's look at some molecules and their measured composite z-score.
system-tested: Calmodulin-1 (Homo sapiens) (UniProt P0DP23)
test-summary: calcium-bound CALM1 binders on microarrays, profiling panel, artefact control for SMM control-protein annotation, biochemical, small-molecule microarray, Cy5-labelled CALM1, plus calcium (AID 1112);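 also: score merges spot fluorescence with signal to noise from triplicate slides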
conditions-used: Cy5-CALM1 binding fluorescence, higher = more signal

molecule	composite z-score
C=CC[C@@H]1C=C[C@H](ON=C[C@@H](C)[C@H](OCc2ccccc2)C(C)C)[C@@H](CO)O1	-0.0781
CC(C)(C)N1C(=O)[C@H]2[C@H]3[C@H](O)C=CC(=O)[C@@H]3CC[C@H]2C1=O	-0.586
COC(=O)[C@H]1[C@@H](O)[C@@]2(O)c3ccccc3O[C@@]2(c2ccccc2)[C@@H]1c1ccccc1	-0.336
CCCNC(=O)OC[C@H]1O[C@H](CCON=C(C)CCC(=O)OC[C@H]2O[C@H](c3ccccc3)C=C[C@@H]2Oc2ccc(OC)cc2)C=C[C@@H]1Oc1ccc(OC)cc1	-0.678
CON=CC[C@@H]1C=C[C@H](OC(C)=O)[C@@H](COC(C)=O)O1	-0.688
COc1cccc([C@H]2Oc3ccc(OC)cc3C(=NO[C@H](C)c3cn([C@H](CO)Cc4ccccc4)nn3)[C@@H]2O)c1	-0.45
COc1ccc(O[C@H]2C=C[C@@H](c3ccccc3)O[C@@H]2COC(=O)CCC(C)=NOC(C)CN2CCCc3nc(C)c(C)cc32)cc1 (some centres not stated)	-0.384

----------
system-tested: Homeobox protein Hox-A13 (Mus musculus) (UniProt Q62424)
Sequence (Q62424 whole entry, looked up): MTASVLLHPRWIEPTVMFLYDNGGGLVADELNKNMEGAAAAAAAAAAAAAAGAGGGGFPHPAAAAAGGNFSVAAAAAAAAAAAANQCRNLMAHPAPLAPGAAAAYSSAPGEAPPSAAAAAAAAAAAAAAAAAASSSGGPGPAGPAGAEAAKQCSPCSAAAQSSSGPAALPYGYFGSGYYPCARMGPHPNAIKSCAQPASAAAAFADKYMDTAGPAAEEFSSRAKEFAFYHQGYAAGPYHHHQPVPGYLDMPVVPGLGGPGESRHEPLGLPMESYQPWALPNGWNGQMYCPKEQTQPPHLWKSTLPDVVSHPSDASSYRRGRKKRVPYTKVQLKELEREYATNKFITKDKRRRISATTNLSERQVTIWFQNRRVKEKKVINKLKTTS
test-summary: inhibitors of HoxA13-DNA binding, primary screen, biochemical, fluorescence polarization, labeled oligonucleotide (AID 1185)
conditions-used: 15 min, higher = more signal, called active from +8 up or from −8 down
// false (0) strictly below 0.1 in z-score; true (1) otherwise

compound	qualitative-label
CON=C1[C@H]2CCn3c(=O)n(-c4ccccc4)c(=O)n3[C@H]2[C@H](O)[C@@H]2O[C@H]12	false (0)
C[C@@H]1NC(=O)[C@@H](C)COC(=O)[C@H](C)NC(=O)[C@@H](C)COC1=O	true (1)
COc1cccc([C@H]2Oc3ccc(OC)cc3C(=NO[C@@H](C)c3cn([C@H](CO)Cc4ccccc4)nn3)[C@@H]2O)c1	false (0)
CC(C)(C)N1C(=O)[C@H]2[C@H]3[C@H](O)[C@H](O)CC(=O)[C@H]3CC[C@H]2C1=O	true (1)
CCCNC(=O)OC[C@H]1O[C@H](CCON=C(C)CCN2CCc3nc(CC)c(CC)cc3C2)C=C[C@@H]1Oc1ccc(OC)cc1	false (0)
COC(=O)CC=C[C@@H](C)[C@@H]1C=C[C@H](O)[C@@H](CO)O1	false (0)
CCOC(=O)[C@H](CC(C)C)NC(=O)CCC1CC(OC(=O)NCc2ccc3c(c2)OCO3)CC2(CCCC(COC(=O)NCCCN3CCCC3=O)O2)O1 (stereo not given in full)	false (0)
C[C@H]1CC[C@H]2C(=O)OC(CO)CN2[C@@H]1c1ccc(Br)cc1 (stereo not given in full)	false (0)
COC(=O)CC=C[C@@H](C)[C@@H](C=NO[C@@H](C)c1cn([C@H](CO)Cc2ccccc2)nn1)NS(=O)(=O)c1ccc(C)cc1	false (0)
CCOC(=O)NN=C1C[C@@H](O)[C@@H](O)[C@@H]2[C@@H]3C(=O)N(C(C)(C)C)C(=O)[C@@H]3CC[C@H]12	true (1)
C=COC[C@@H]1CN2[C@@H](CC[C@@H](C)[C@@H]2c2ccc(Br)cc2)C(=O)O1	false (0)
CCOC(=O)CCN1C(=O)[C@H]2[C@H]3[C@H](O)[C@H](O)CC(=NOCC(C)C)[C@H]3CC[C@H]2C1=O	true (1)
O=C1C=C[C@@H](O)[C@@H]2[C@@H]3C(=O)N(C[C@@H]4CCCO4)C(=O)[C@@H]3CC[C@@H]12	true (1)
C=CC[C@@H]1C=C[C@H](ON=C[C@@H](C)[C@H](OCc2ccccc2)C(C)C)[C@@H](CO)O1	false (0)
